System: KM12 colon
Experiment summary: NCI-60 one-dose screen, 48 h (100 = growth as untreated, 0 = no growth, -100 = all killed)
Details: 10 µM unless noted
About 83,000 compounds went through this panel and 20% of them were active in at least one assay; those are over-represented in the sample as a whole.
Test readout: growth (%)
One number for each entry, in %.

Worked set:
CN1CCN(S(=O)(=O)O[C@@H]2C(=O)N(c3cc4c5ccccc5ccc4c4ccccc34)[C@H]2c2ccc(F)cn2)CC1 : 91.1
COc1c(O)cc2oc3cc(O[C@@H]4OC(C)[C@@H](O)[C@H](O)C4O)c(CC=C(C)C)c(O)c3c(=O)c2c1CC=C(C)C (some centres undefined) : 87.8
Cc1cccc(C)c1NCc1nnc(-c2ccco2)o1 : 91.6

Note: attention shifts to another entry.
(Q) Consider the molecule C=C1C(=O)O[C@H]2[C@H]1CC/C(COC(=O)CCCCC(=O)OC/C1=C/CC[C@@]3(C)O[C@H]3[C@H]3OC(=O)C(=C)[C@@H]3CC1)=C\CC[C@@]1(C)O[C@@H]21 and give its measured growth.
(A) 90.6
